Test system: Blood
Experiment: Antiinflammatory activity in human whole blood assessed as inhibition of LPS-induced TNFalpha secretion by ELISA
Format: functional, tissue-based
pIC50: −log10 of the molar value.
property: pIC50

Look over these answered cases.
**Q:** Look up pIC50: COCc1cc(COc2ccc([C@]3(N)CCN([C@H](C)C(=O)NO)C3=O)cc2)c2ccccc2n1
**A:** 7.01

**Q:** Look up pIC50: CC(C)C[C@H](C(=O)NO)N1CC[C@@](N)(c2ccc(OCc3cc(COC(C)C)nc4ccccc34)cc2)C1=O
**A:** 6.91

**Q:** Look up pIC50: CC(C)C[C@H](C(=O)NO)N1CC[C@@](N)(c2ccc(OCc3cc(-c4ccc(OCc5ccccc5)cc4)nc4ccccc34)cc2)C1=O
**A:** 5.40

[1] CC(C)C[C@H](C(=O)NO)N1CC[C@@](N)(c2ccc(OCc3cc(-c4ccccc4)nc4ccccc34)cc2)C1=O
[2] CC(C)C[C@H](C(=O)NO)N1CC[C@@](N)(c2ccc(OCc3cc(C4CC4)nc4ccccc34)cc2)C1=O
**Q:** Hi there, can you help? I need to know whether 1 or 2 has lower measured pIC50. Answer with the label corresponding to your selection.
**A:** 1
(1: 5.51, 2: 6.77)

[a] Cc1ccc(-c2cc(COc3ccc([C@]4(N)CCN([C@H](CC(C)C)C(=O)NO)C4=O)cc3)c3ccccc3n2)cc1
[b] CC(C)C[C@H](C(=O)NO)N1CC[C@@](N)(c2ccc(OCc3cc(C(F)(F)F)nc4ccccc34)cc2)C1=O
**Q:** Lab note: record which item had the higher pIC50, a or b . Answer with the label corresponding to your selection.
**A:** b
(b: 6.33, a: 5.54)

[P] COCc1cc(COc2ccc([C@]3(NC(=O)OC(C)(C)C)CCN([C@H](CC(C)C)C(=O)NO)C3=O)cc2)c2ccccc2n1
[Q] CC(C)C[C@H](C(=O)NO)N1CC[C@@](N)(c2ccc(OCc3cc(-c4ccc(F)cc4)nc4ccccc34)cc2)C1=O
**Q:** Hi there, can you help? I need to know whether P or Q has lower measured pIC50. Answer with the label corresponding to your selection.
**A:** P

[I] Cc1cccc(-c2cc(COc3ccc([C@]4(N)CCN([C@H](CC(C)C)C(=O)NO)C4=O)cc3)c3ccccc3n2)c1
[II] CCc1cc(COc2ccc([C@]3(N)CCN([C@H](CC(C)C)C(=O)NO)C3=O)cc2)c2ccccc2n1
**Q:** Hi there, can you help? I need to know whether I or II has lower measured pIC50. Answer with the label corresponding to your selection.
**A:** I

[1] COCc1cc(COc2ccc([C@]3(N)CCN([C@H](CC(C)C)C(=O)O)C3=O)cc2)c2ccccc2n1
[2] CC(C)C[C@H](C(=O)NO)N1CC[C@@](N)(c2ccc(OCc3cc(-c4ccc(Cl)cc4)nc4ccccc34)cc2)C1=O
**Q:** Lab note: record which item had the higher pIC50, 1 or 2 . Answer with the label corresponding to your selection.
**A:** 2

[I] CC(C)C[C@H](C(=O)NO)N1CC[C@@](N)(c2ccc(OCc3cc(CCOC(C)C)nc4ccccc34)cc2)C1=O
[II] CC(C)C[C@H](C(=O)NO)N1CC[C@@](N)(c2ccc(OCc3cc(Cl)nc4ccccc34)cc2)C1=O
**Q:** Lab note: record which item had the higher pIC50, I or II . Answer with the label corresponding to your selection.
**A:** I
(I: 6.89, II: 6.35)

[a] CC(C)C[C@H](C(=O)NO)N1CC[C@@](N)(c2ccc(OCc3cc(C(C)C)nc4ccccc34)cc2)C1=O
[b] COc1cc(COc2ccc([C@]3(N)CCN([C@H](CC(C)C)C(=O)NO)C3=O)cc2)c2ccccc2n1
[c] COCc1cc(COc2ccc([C@]3(N)CCN([C@H](CC(C)C)C(=O)NO)C3=O)cc2)c2ccccc2n1
[d] COCc1cc(COc2ccc([C@]3(N)CCN([C@H](CC(C)C)C(=O)OC)C3=O)cc2)c2ccccc2n1
**Q:** Descending sort on pIC50 required. Your answer should be the labels, listed in the requested order.
**A:** c, a, b, d
(c: 7.96, a: 6.85, b: 6.40, d: 5.52)
